experiment: eLogD (shake-flask, pH 7.4); type: physicochemical; conditions: 1-octanol/phosphate buffered saline (1:1, v/v), Shake-flask method
Exercise: state measured logD at 2 h for each of the compounds provided.
# respond with the number and nothing more

Any idea what its logD at 2 h is? The compound is `CCCN(Cc1ccc(C(=O)NC2CC2)cc1)Cc1cc(C(F)(F)F)cc(C(F)(F)F)c1`
5

Any idea what its logD at 2 h is? The compound is `O=C(NC1CC1)c1ccc(CN(Cc2ccc(Cl)cc2Cl)C2CC2)cc1`
4.1

Any idea what its logD at 2 h is? The compound is `O=C(NC1CC1)c1ccc(CN(Cc2ccccc2)C2CC2)cc1`
4

Any idea what its logD at 2 h is? The compound is `CCCN(Cc1ccccc1)Cc1ccc(C(=O)NC2CC2)cc1`
3.7

Any idea what its logD at 2 h is? The compound is CC(c1ccccc1)N(Cc1ccc(C(=O)NC2CC2)cc1)C1CC1 (stereo not shown)
4.2

Any idea what its logD at 2 h is? The compound is `CCCN(Cc1ccc(C(=O)NC2CC2)cc1)Cc1ccc(C(C)(C)C)cc1`
4.9

Any idea what its logD at 2 h is? The compound is `CCCN(Cc1ccc(C(=O)NC2CC2)cc1)Cc1ccc(C(F)(F)F)cc1`
5.2

Any idea what its logD at 2 h is? The compound is `O=C(NC1CC1)c1ccc(CN(Cc2ccccc2)CC(F)(F)F)cc1`
4.8

Any idea what its logD at 2 h is? The compound is `O=C(NC1CC1)c1ccc(CN(Cc2ccccc2)C2CCC2)cc1`
3.8

Any idea what its logD at 2 h is? The compound is `CC(C)N(Cc1ccccc1)Cc1ccc(C(=O)NC2CC2)cc1`
3.5
